Biological target: Mitogen-activated protein kinase kinase kinase 2 (Homo sapiens) (UniProt Q9Y2U5)
Assay: modulators of MEK5 binding to wildtype MEKK2, primary screen, biochemical, multiplex bead flow cytometry, Alexa488-MEK5 (AID 1531)
Details: Alexa488-MEK5 binding to MEKK2 WT, at 10 µM, actives lie on both sides
Screen size: about 290,000 compounds; about 3,300 (1.1%) were called active. Rule as the data show it: active = binding response below about 67% or above about 130%; inconclusive = no clear call, values can overlap the other calls; inactive = in between. Only a selection was taken, and actives are over-represented in it overall.
Possible outcomes: label 1 = active, label 0 = inactive

{"columns": ["Compound", "Classification"],
 "data": [
  ["COc1ccc(C2CC(c3cccs3)=NN2c2ccc(F)cc2)cc1OC (stereo not given)", "label 0"],
  ["CS(=O)(=O)Nc1cccc(C2=NN(C(=O)c3cccc(F)c3)C(c3cccs3)C2)c1 (stereo not given)", "label 0"],
  ["CC(=O)N[C@H]1[C@H]([C@H](O)[C@H](O)CO)OC(C(=O)O)=C[C@@H]1O", "label 0"],
  ["NS(=O)(=O)c1ccc(-c2ccc(/C=C3\\SC(=O)NC3=O)o2)cc1", "label 0"],
  ["COc1ccc(Cl)cc1-n1c(=S)sc2c(=O)n(-c3ccc(F)cc3)c(SCC(=O)O)nc21", "label 0"],
  ["O=C(NCc1ccccc1Cl)c1csc2c1CCCCC2", "label 0"],
  ["CN1C(=O)/C(=C\\c2ccc(-c3ccccc3)o2)SC1=S", "label 1"],
  ["O=C(Nc1ccc(C(=O)N2CCCCC2)cc1)c1cccc([N+](=O)[O-])c1", "label 0"],
  ["COc1ccc(N(C)S(=O)(=O)c2ccc3c(c2)CC(C)N3C(=O)C2CC2)c(OC)c1 (stereo not given)", "label 0"],
  ["CCN(CC)CCN1C(=O)C2C(C(=O)Nc3ccc(Br)cc3)C3C=CC2(O3)C1C(=O)NC1CCCCC1 (stereo not given)", "label 0"],
  ["Cc1cc([N+](=O)[O-])ccc1NC(=O)c1ccc(NC(=O)C(C)C)cc1", "label 0"],
  ["COC(=O)c1ccc(C(=O)OC)c(NC(=S)N2CCN(c3ccc(F)cc3)CC2)c1", "label 0"],
  ["CCCCN(CCCC)CCCNC(=O)CN1C(=O)COc2ccc(S(=O)(=O)N3CCC(C)CC3)cc21", "label 0"],
  ["OCC[C@H]1C[C@H](O)[C@@H](O)[C@]2(CCCCO2)O1", "label 0"],
  ["CC(=O)N(CCCN(C)C)c1nc2ccc(C)cc2s1", "label 0"],
  ["CCn1c(SCc2ccccc2)nc2cc(OC)c(OC)cc2c1=O", "label 0"],
  ["O=C(NCc1ccccc1Cl)NC(=O)c1csc([N+](=O)[O-])c1", "label 1"],
  ["CCOC(=O)c1ccc(NC(=O)c2c(NCc3ccccc3)[nH]c(=O)[nH]c2=O)cc1", "label 0"],
  ["CCOC(=O)C1Nc2ccc(C(F)(F)F)cc2C2C=CCC12 (stereo not given)", "label 0"],
  ["CC1CCCC(C)N1C(=O)CSc1nnnn1C1CCCC1 (stereo not given)", "label 0"],
  ["Cc1cc2oc3ccc(NCCC4CCCN4C)cc3c(=O)c2cc1C (stereo not given)", "label 0"],
  ["O=C(Nc1ccc2ccccc2c1)Nc1ccc2snnc2c1", "label 1"],
  ["Cc1cc(C)c2nc(N(CCN(C)C)C(=O)/C=C/c3cccs3)sc2c1", "label 1"],
  ["CCCc1cc(=O)[nH]c(SCC(=O)N2C(C)CCCC2C)n1 (stereo not given)", "label 0"],
  ["O=C(NC(=S)NC1CCCCC1)c1ccc(Cl)cc1", "label 0"],
  ["CC(=O)N(C)c1ccc(NC(=O)Nc2cccc3ccccc23)cc1", "label 0"],
  ["Cc1ccc(C2CC(c3cccc(NS(C)(=O)=O)c3)=NN2S(C)(=O)=O)cc1 (stereo not given)", "label 1"],
  ["CCC(C)(C)NC(=O)C1c2ccccc2Oc2ccccc21", "label 0"],
  ["CC(C)Oc1ccc(CN2CCC(n3nccc3NC(=O)c3cccnc3)CC2)cc1", "label 1"],
  ["Cc1ccc(-c2csc(NCCc3nc4cc(Cl)c(Cl)cc4n3CCOCCO)n2)cc1", "label 0"],
  ["CCCc1nnc(SCC(=O)N2C(C)CCCC2C)n1CC (stereo not given)", "label 1"],
  ["Cn1ccnc1-c1nnn(-c2ccc(F)cc2)n1", "label 0"],
  ["CCOC(=O)CSc1nc2ccc(C)cc2n2cnnc12", "label 0"],
  ["Cc1cccc2sc(N(CCCN(C)C)C(=O)CCS(=O)(=O)c3ccccc3)nc12", "label 0"],
  ["CCOc1ccc(NC(=O)Nc2ccc(N(C)C(C)=O)cc2)cc1", "label 0"]
]}
